Test system: HRAS
Test: 3' UTR reporter interaction score (median-centred robust z-score of log2 firefly/Renilla activity); higher = less repression of the 3' UTR reporter
Details: HEK293T; 48 h
measuredAttribute: 3' UTR reporter interaction score
// print number alone

# lookup: "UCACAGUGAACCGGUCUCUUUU" on HRAS, 3' UTR reporter interaction score = -2.6

# lookup: "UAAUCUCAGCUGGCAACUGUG" on HRAS, 3' UTR reporter interaction score = 0.474

# lookup: "GGGCGCCUGUGAUCCCAAC" on HRAS, 3' UTR reporter interaction score = -0.201

# lookup: "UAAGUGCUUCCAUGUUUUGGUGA" on HRAS, 3' UTR reporter interaction score = -0.478

# lookup: "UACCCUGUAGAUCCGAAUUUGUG" on HRAS, 3' UTR reporter interaction score = 1.04

# lookup: "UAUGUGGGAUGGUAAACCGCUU" on HRAS, 3' UTR reporter interaction score = -0.809

# lookup: "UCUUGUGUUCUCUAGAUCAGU" on HRAS, 3' UTR reporter interaction score = 0.641

# lookup: "AAACAAACAUGGUGCACUUCUUU" on HRAS, 3' UTR reporter interaction score = -0.444

# lookup: "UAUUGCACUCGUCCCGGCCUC" on HRAS, 3' UTR reporter interaction score = -0.467

# lookup: "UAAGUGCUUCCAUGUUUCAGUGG" on HRAS, 3' UTR reporter interaction score = 0.114

# lookup: "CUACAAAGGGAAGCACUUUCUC" on HRAS, 3' UTR reporter interaction score = -1.25

# lookup: "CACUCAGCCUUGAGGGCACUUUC" on HRAS, 3' UTR reporter interaction score = -0.0814

# lookup: "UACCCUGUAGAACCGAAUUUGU" on HRAS, 3' UTR reporter interaction score = 0.849

# lookup: "UAUUGCACAUUACUAAGUUGC" on HRAS, 3' UTR reporter interaction score = -0.69

# lookup: "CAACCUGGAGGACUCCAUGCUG" on HRAS, 3' UTR reporter interaction score = 0.685

# lookup: "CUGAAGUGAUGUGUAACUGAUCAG" on HRAS, 3' UTR reporter interaction score = 0.253

# lookup: "GUGCAUUGUAGUUGCAUUG" on HRAS, 3' UTR reporter interaction score = -0.432

# lookup: "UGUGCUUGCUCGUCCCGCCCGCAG" on HRAS, 3' UTR reporter interaction score = -0.789

# lookup: "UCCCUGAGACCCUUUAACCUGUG" on HRAS, 3' UTR reporter interaction score = 1.12

# lookup: "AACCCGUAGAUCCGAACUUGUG" on HRAS, 3' UTR reporter interaction score = 0.79

# lookup: "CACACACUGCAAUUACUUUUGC" on HRAS, 3' UTR reporter interaction score = 0.537

# lookup: "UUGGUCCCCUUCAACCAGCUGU" on HRAS, 3' UTR reporter interaction score = 1.24

# lookup: "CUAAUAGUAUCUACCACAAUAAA" on HRAS, 3' UTR reporter interaction score = -0.78

# lookup: "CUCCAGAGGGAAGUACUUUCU" on HRAS, 3' UTR reporter interaction score = -1.03

# lookup: "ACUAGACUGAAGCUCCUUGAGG" on HRAS, 3' UTR reporter interaction score = 0.196

# lookup: "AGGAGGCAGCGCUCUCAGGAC" on HRAS, 3' UTR reporter interaction score = -0.534

# lookup: "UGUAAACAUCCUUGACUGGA" on HRAS, 3' UTR reporter interaction score = 0.642

# lookup: "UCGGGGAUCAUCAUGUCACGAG" on HRAS, 3' UTR reporter interaction score = -0.912

# lookup: "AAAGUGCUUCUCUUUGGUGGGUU" on HRAS, 3' UTR reporter interaction score = 0.266

# lookup: "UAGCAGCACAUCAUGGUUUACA" on HRAS, 3' UTR reporter interaction score = -0.34

# lookup: "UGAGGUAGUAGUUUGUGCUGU" on HRAS, 3' UTR reporter interaction score = 1.26

# lookup: "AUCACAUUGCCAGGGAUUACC" on HRAS, 3' UTR reporter interaction score = -0.747

# lookup: "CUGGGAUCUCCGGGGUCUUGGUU" on HRAS, 3' UTR reporter interaction score = -0.593

# lookup: "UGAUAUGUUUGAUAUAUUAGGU" on HRAS, 3' UTR reporter interaction score = -0.158

# lookup: "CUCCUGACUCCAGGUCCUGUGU" on HRAS, 3' UTR reporter interaction score = 0.32

# lookup: "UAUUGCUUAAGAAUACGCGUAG" on HRAS, 3' UTR reporter interaction score = 0.147

# lookup: "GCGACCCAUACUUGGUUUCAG" on HRAS, 3' UTR reporter interaction score = -0.348

# lookup: "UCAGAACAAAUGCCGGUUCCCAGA" on HRAS, 3' UTR reporter interaction score = 1.03

# lookup: "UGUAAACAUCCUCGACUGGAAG" on HRAS, 3' UTR reporter interaction score = 0.246

# lookup: "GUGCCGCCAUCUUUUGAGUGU" on HRAS, 3' UTR reporter interaction score = -0.278

# lookup: "UGGGCGUAUCUGUAUGCUA" on HRAS, 3' UTR reporter interaction score = -0.235

# lookup: "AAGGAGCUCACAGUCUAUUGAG" on HRAS, 3' UTR reporter interaction score = 0.291

# lookup: "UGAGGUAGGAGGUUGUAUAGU" on HRAS, 3' UTR reporter interaction score = 0.649

# lookup: "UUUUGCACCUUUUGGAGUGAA" on HRAS, 3' UTR reporter interaction score = -0.429

# lookup: "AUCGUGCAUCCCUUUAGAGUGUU" on HRAS, 3' UTR reporter interaction score = -0.945

# lookup: "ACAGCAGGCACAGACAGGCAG" on HRAS, 3' UTR reporter interaction score = -0.306

# lookup: "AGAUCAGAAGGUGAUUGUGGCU" on HRAS, 3' UTR reporter interaction score = 0.462

# lookup: "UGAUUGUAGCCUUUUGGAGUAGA" on HRAS, 3' UTR reporter interaction score = 1.52

# lookup: "AGUGUGGCUUUCUUAGAGC" on HRAS, 3' UTR reporter interaction score = 0.377

# lookup: "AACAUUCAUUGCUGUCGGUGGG" on HRAS, 3' UTR reporter interaction score = -0.854

# lookup: "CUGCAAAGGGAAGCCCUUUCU" on HRAS, 3' UTR reporter interaction score = 0.112

# lookup: "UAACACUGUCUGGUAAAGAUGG" on HRAS, 3' UTR reporter interaction score = 0.0521

# lookup: "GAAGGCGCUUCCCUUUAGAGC" on HRAS, 3' UTR reporter interaction score = -1.63

# lookup: "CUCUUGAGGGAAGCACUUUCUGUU" on HRAS, 3' UTR reporter interaction score = -0.664

# lookup: "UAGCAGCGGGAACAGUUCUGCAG" on HRAS, 3' UTR reporter interaction score = -0.261

# lookup: "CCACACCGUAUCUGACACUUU" on HRAS, 3' UTR reporter interaction score = -0.828

# lookup: "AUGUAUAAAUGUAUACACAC" on HRAS, 3' UTR reporter interaction score = 0.0947

# lookup: "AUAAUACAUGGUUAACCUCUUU" on HRAS, 3' UTR reporter interaction score = -0.143

# lookup: "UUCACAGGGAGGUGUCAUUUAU" on HRAS, 3' UTR reporter interaction score = 0.0679

# lookup: "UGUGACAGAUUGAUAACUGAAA" on HRAS, 3' UTR reporter interaction score = -0.136

# lookup: "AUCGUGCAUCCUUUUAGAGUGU" on HRAS, 3' UTR reporter interaction score = -1.03

# lookup: "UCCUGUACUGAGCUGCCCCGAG" on HRAS, 3' UTR reporter interaction score = 0.706

# lookup: "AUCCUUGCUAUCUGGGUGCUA" on HRAS, 3' UTR reporter interaction score = -3.26

# lookup: "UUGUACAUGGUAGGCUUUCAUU" on HRAS, 3' UTR reporter interaction score = 0.289

# lookup: "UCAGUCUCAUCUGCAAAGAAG" on HRAS, 3' UTR reporter interaction score = 1.08

The measurements presented in this section are drawn from the supplement of paper PMC5844555.
